Overview of reported log10 kon across a group of binders:
biological target: T1, AAV9 (adeno-associated virus serotype 9); experiment: SPR, AAV on CM5 chip;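 further: surface plasmon resonance with AAV amine-coupled to the chip as ligand, nanobodies injected as analyte over a concentration series, rate constants and affinity fitted from binding curves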
T1 construct: also called adeno-associated virus serotype 9
Assay Endpoint: log10 kon (log10 of the value in M⁻¹ s⁻¹)

{"Binder": "A4-106 (VHH) VHH: VQLQESGGGLVQPGGSLRLSCIASGSIFSLNAMGWYRQAPGKQRELVATITSGGSTNYADSVKGRFTISRDNAKNTAYLQMNNLQPEDTAVYYCHVDEVRESIWTTSNLWGQGTQVTVSS", "Assay Result": 4.82}
{"Binder": "A4-114 (VHH) VHH: VQLQESGGGLVQTGGSLRLSCVASGSIFSINTVGWYRQAPGKQRELVATVTRAGSTWYAGSVKGRFTISRDNTKNTIYLQMNSLRPEDTAVYYCHVDELRQSTWTTSNLWGQGTQVTVSS", "Assay Result": 3.42}
{"Binder": "A4-113 (VHH) VHH: VQLQESGGGLVQTGGSLRLSCVASGSRFSINTVGWYRQAPGKQRELVATVTRGGSTWYAGSVKGRFTISRDNTKNTIYLQMNSLRPEDTAVYYCHVDEIRQSTWTTSNLWGQGTQVTVSS", "Assay Result": 3.99}
{"Binder": "A4-111 (VHH) VHH: VQLQESGGGLAQPGGSLRLSCAASGSNFSINTMGWYRQRAGKQREFVATITRGGSTNYGDSVKGRFTISRDNAKTTVYLQMNSLRPEDTAVYYCHLDEVRESTWTTSNLWGQGTQVTVSS", "Assay Result": 5.10}
{"Binder": "A4-101 (VHH) VHH: VQLQESGGGLVQPGGSLRLSCAASGSRFSINIMGWYRQAPGKQRELVASVTRGGTTNYADSVKGRFTISRDNPKNTIYLQMNSLRPEDTAVYYCHVDEIRESTWTTSNLWGQGTQVTVSS", "Assay Result": 3.83}
{"Binder": "A4-109 (VHH) VHH: VQLQESGGGLVQAGGSLRLSCAASGTIFSLNVMGWYRQAPGKQRELVASVTRGGNTNYADSVKGRFTISRDNAKTTVYLQMNSLRPEDTAVYYCHVDELRDSTWTTSNLWGQGTQVTVSS", "Assay Result": 4.23}
{"Binder": "A4-108 (VHH) VHH: VQLQESGGGLAQPGGSLRLSCLASGSGFSINTMGWYRQAPPKWRELVATVTRGGSTNYAGSVKGRFTISRDNPKNTVYLQMNSLRPEDTAVYYCHLDEVRQSTWTTSNIWGQGTQVTVSS", "Assay Result": 5.24}
{"Binder": "A4-104 (VHH) VHH: VQLQESGGGLVQPGGSLRLSCAASGSIFSLNSMGWYRQAPGKQRELVATITSGGSTNYAGSVKGRFTISRDNAKNTVYLQMNNLQPEDTAVYYCHVDEVRESSWTTSNLWGQGTQVTVSS", "Assay Result": 3.31}
{"Binder": "A4-107 (VHH) VHH: VQLQESGGGLVQPGGSLRLSCIASGSGFSINTVGWYRQAPAKQRELVATLTRGGSTNYADSVKGRFTISRDNPKNTVYLQMNSLRPEDTAVYYCHVDEVRQSSWTTSNIWGQGTQVTVSS", "Assay Result": 3.33}
{"Binder": "A4-103 (VHH) VHH: VQLQESGGGLVQPGGSLRLSCAASGSIFSLNAMGWYRQAPGKQRELVATITRGGSTNYADSVKGRFTISRDNAKNTVYLQMNSLRPEDTAVYYCHVDEVRESIWTTSNLWGQGTQVTVSS", "Assay Result": 4.12}
{"Binder": "A4-105 (VHH) VHH: VQLQESGGGLVQPGGSLRLSCAASGSIFSLNAMGWYRQAPGKQRELVATITSGGSTNYADSVKGRFTISRDNAKNTAYLQMNNLQPEDTAVYYCHVDEVRESIWTTSNLWGQGTQVTVSS", "Assay Result": 5.05}
{"Binder": "A4-112 (VHH) VHH: VQLQESGGGLVQTGGSLRLSCIASGSIFSINTVGWYRQAPPKQRELVATVTRAGSTWYAGSVKGRFTISRDNAKNTIYLQMNTLRPEDTAVYYCHVDEVRQSTWTTSNIWGQGTQVTVSS", "Assay Result": 5.15}
